STUDY TARGET: trypsin (Serine protease 1) (Bos taurus, UniProt P00760)
Sequence (P00760 whole entry): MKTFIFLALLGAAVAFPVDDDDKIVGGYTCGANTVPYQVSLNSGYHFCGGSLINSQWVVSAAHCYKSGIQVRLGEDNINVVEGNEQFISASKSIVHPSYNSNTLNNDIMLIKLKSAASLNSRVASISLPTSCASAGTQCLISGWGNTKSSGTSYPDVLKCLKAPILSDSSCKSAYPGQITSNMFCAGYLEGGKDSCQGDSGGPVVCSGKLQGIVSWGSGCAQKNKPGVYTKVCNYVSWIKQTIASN
EXPERIMENT SUMMARY: Solubility against bovine trypsin
Format: ADME
EXPERIMENTAL SETUP: cattle
METRIC NAME: solubility (µM)
Numeric only. Scale: µM

RECORD SMILES | solubility / µM
CCCCCCCCCc1cc(OC)cc(=O)o1 | 200

Query (compound): COC1=C/C(=C\C(=O)C(=O)O)OC(O)=C1 ; field requested: solubility
1000

Another compound to check: CCCCCc1cc(O)cc(=O)o1
200

Another compound to check: CCCCCCCCCCCC(=O)c1c(O)cc(CCCCCCCCCCC)oc1=O
10

Another compound to check: CCCCCC(=O)c1c(O)cc(CCCCC)oc1=O
25

Another compound to check: CCCCCCCc1cc(O)cc(=O)o1
200

Another compound to check: CCCCCCCCCCCC(=O)c1c(O)cc(C)oc1=O
200

Another compound to check: CCCCCOC(=O)C(=O)/C=C1\C=C(OC)C=C(O)O1
200

Another compound to check: CCCCCCCC(=O)c1c(O)cc(CCCCCCC)oc1=O
25

Another compound to check: CCCCOC(=O)C(=O)/C=C1\C=C(OC)C=C(O)O1
200

====

Each entry below carries its recorded Ki.
STUDY TARGET: Neutrophil elastase (Homo sapiens, UniProt P08246)
Sequence (P08246 whole entry): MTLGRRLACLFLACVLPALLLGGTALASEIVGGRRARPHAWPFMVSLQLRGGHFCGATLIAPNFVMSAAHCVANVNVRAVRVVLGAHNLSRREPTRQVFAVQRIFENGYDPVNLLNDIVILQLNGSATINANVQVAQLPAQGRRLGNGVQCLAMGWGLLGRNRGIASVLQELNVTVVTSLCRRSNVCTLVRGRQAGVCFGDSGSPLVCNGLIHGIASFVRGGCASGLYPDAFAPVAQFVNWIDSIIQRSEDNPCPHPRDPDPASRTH
EXPERIMENT SUMMARY: Evaluated for inhibition of the human sputum elastase (HSE)
Numeric only. Scale: µM

RECORD SMILES | Ki / µM
CCCCCOC(=O)C(=O)/C=C1\C=C(OC)C=C(O)O1 | 410

Query (compound): CCCCCCCc1cc(O)cc(=O)o1 ; field requested: Ki
1100

Another compound to check: CCCCCCCCCC(=O)c1c(O)cc(CCCCCCCCC)oc1=O
7.9

Another compound to check: CCCCCc1cc(O)cc(=O)o1
1700

====

Each entry below carries its recorded inhibitor concentration tested (near solubility limit).
Test system: alpha-chymotrypsin
EXPERIMENT SUMMARY: Solubility against bovine alpha-chymotrypsin
Assay type: ADME, Bos taurus
EXPERIMENTAL SETUP: cattle
Numeric only. Scale: µM

Some molecules with recorded inhibitor concentration tested (near solubility limit):
RECORD SMILES | UNIT INFO | OBSERVED VALUE
CCCCCCCCC(=O)c1c(O)cc(CCCCCCCC)oc1=O | µM | 25
CCCCCCCCCCCC(=O)c1c(O)cc(C)oc1=O | µM | 200
CCCCCCCCCc1cc(OC)cc(=O)o1 | µM | 200
CCCCCCCc1cc(O)cc(=O)o1 | µM | 200

Now examine the next entry.
Query (molecule): CCCCCCCCCCCc1cc(O)cc(=O)o1 ; field requested: inhibitor concentration tested (near solubility limit)
200

====

Each entry below carries its recorded inhibitor concentration tested (near solubility limit).
STUDY TARGET: pancreatic elastase (Sus scrofa, UniProt P00772+P08419)
EXPERIMENT SUMMARY: Solubility against porcine pancreatic elastase
Assay type: ADME, protein assay
EXPERIMENTAL SETUP: pig
Numeric only. Scale: µM

Some molecules with recorded inhibitor concentration tested (near solubility limit):
RECORD SMILES | UNIT INFO | OBSERVED VALUE
CCCCCCCCCCCC(=O)c1c(O)cc(C)oc1=O | µM | 200
CCCCCCCCCCCC(=O)c1c(O)cc(CCCCCCCCCCC)oc1=O | µM | 10
CCCCCCCc1cc(OC)cc(=O)o1 | µM | 200

Query (molecule): CCCCCc1cc(O)cc(=O)o1 ; field requested: inhibitor concentration tested (near solubility limit)
200

Another molecule to check: CCCCCCCC(=O)c1c(O)cc(CCCCCCC)oc1=O
25

Another molecule to check: CCCCCC(=O)c1c(O)cc(C)oc1=O
200

Another molecule to check: CCCCCCCC(=O)c1c(O)cc(C)oc1=O
200

====

EXPERIMENT SUMMARY: Evaluated for inhibition of the human sputum elastase (HSE)
Assay type: functional
METRIC NAME: pKi
# log scale: pKi equals minus log10 of the concentration in mol/L

Query (molecule): CCCCCCCCCCCc1cc(O)cc(=O)o1 ; field requested: pKi
4.08

====

STUDY TARGET: pancreatic elastase (Sus scrofa, UniProt P00772+P08419)
EXPERIMENT SUMMARY: Solubility against porcine pancreatic elastase
Format: ADME, protein assay
EXPERIMENTAL SETUP: pig
METRIC NAME: inhibitor concentration tested (near solubility limit) (µM)
Numeric only. Scale: µM

RECORD SMILES | STUDY TARGET | OBSERVED VALUE
CCCCCCCCCC(=O)c1c(O)cc(C)oc1=O | pancreatic elastase (Sus scrofa, UniProt P00772+P08419) | 200
CCCCCCCCCc1cc(O)cc(=O)o1 | pancreatic elastase (Sus scrofa, UniProt P00772+P08419) | 200
CCOC(=O)C(=O)/C=C1\C=C(OC)C=C(O)O1 | pancreatic elastase (Sus scrofa, UniProt P00772+P08419) | 200
COC1=C/C(=C\C(=O)C(=O)O)OC(O)=C1 | pancreatic elastase (Sus scrofa, UniProt P00772+P08419) | 1000
CCCCCOC(=O)C(=O)/C=C1\C=C(OC)C=C(O)O1 | pancreatic elastase (Sus scrofa, UniProt P00772+P08419) | 200

Query (molecule): CCCCCCCCCCCc1cc(O)cc(=O)o1 ; field requested: inhibitor concentration tested (near solubility limit)
200

Another molecule to check: CCCCCC(=O)c1c(O)cc(CCCCC)oc1=O
25

====

EXPERIMENT SUMMARY: Evaluated for uncompetitive inhibition of the human sputum elastase (HSE)
METRIC NAME: Ki (µM)
Numeric only. Scale: µM

RECORD SMILES | Ki [µM]
CCCCCCCCCc1cc(OC)cc(=O)o1 | 130

Query (compound): CCCCCCCc1cc(OC)cc(=O)o1 ; field requested: Ki
140

====

EXPERIMENT SUMMARY: Evaluated for Non-competitive inhibition of the human sputum elastase (HSE)
# strict inequality: Ki < 400 µM yields Met, everything else yields Not met

Would you please look over these solved cases?
RECORD SMILES | ASSIGNED CATEGORY
CCCCCCCCCCCC(=O)c1c(O)cc(C)oc1=O | Met
CCCCCCCCCC(=O)c1c(O)cc(C)oc1=O | Met
CCCCCC(=O)c1c(O)cc(CCCCC)oc1=O | Met

Input CCCCCC(=O)c1c(O)cc(C)oc1=O ; condition: Ki strictly below 400 µM. Does it hold?
Not met

====

STUDY TARGET: pancreatic elastase (Sus scrofa, UniProt P00772+P08419)
EXPERIMENT SUMMARY: Solubility against porcine pancreatic elastase
Type: ADME, protein assay
EXPERIMENTAL SETUP: pig
Each entry below carries its recorded inhibitor concentration tested (near solubility limit).
Numeric only. Scale: µM

RECORD SMILES | OBSERVED VALUE
CCCCCCCCCC(=O)c1c(O)cc(CCCCCCCCC)oc1=O | 25
CCCCCCCCC(=O)c1c(O)cc(CCCCCCCC)oc1=O | 25
CCCCOC(=O)C(=O)/C=C1\C=C(OC)C=C(O)O1 | 200
CCCCCCCc1cc(O)cc(=O)o1 | 200

Now examine the next entry.
Query (molecule): CCCCCCCCCc1cc(OC)cc(=O)o1 ; field requested: inhibitor concentration tested (near solubility limit)
200

====

STUDY TARGET: trypsin (Serine protease 1) (Bos taurus, UniProt P00760)
EXPERIMENT SUMMARY: Solubility against bovine trypsin
Type: ADME
EXPERIMENTAL SETUP: cattle
Each entry below carries its recorded solubility.
Output should be the measured figure followed by the unit it is expressed in.

Query (compound): CCCCCCCCCCCc1cc(O)cc(=O)o1 ; field requested: solubility
200 µM

Another compound to check: CCCCCCCC(=O)c1c(O)cc(C)oc1=O
200 µM

Another compound to check: CCCCCCCc1cc(OC)cc(=O)o1
200 µM

Another compound to check: CCCCCCCCCC(=O)c1c(O)cc(CCCCCCCCC)oc1=O
25 µM

Another compound to check: CCOC(=O)C(=O)/C=C1\C=C(OC)C=C(O)O1
200 µM

Another compound to check: CCCCCCCCC(=O)c1c(O)cc(CCCCCCCC)oc1=O
25 µM

Another compound to check: CCCCCCCCCc1cc(O)cc(=O)o1
200 µM

Another compound to check: CCCCCCCCCC(=O)c1c(O)cc(C)oc1=O
200 µM

Another compound to check: CCCCCC(=O)c1c(O)cc(C)oc1=O
200 µM
